- System: A. baumannii ATCC 19606
- EXPERIMENT_SUMMARY: microbe, parasite or virus in culture
- Type: cell-based, Acinetobacter baumannii
- TEST_PARAMETERS: Acinetobacter baumannii, ATCC19606; MIC wells cultured on MHA plate, 24 h at 37 °C, no visible growth, triplicate; read-out: MBC
# MBC listing for each entry below
A complete answer gives the number followed by the unit.

Some solved entries appear below for comparison.
[
  {
    "MOLECULE": "CN(C)[C@@H]1C(O)=C(C(N)=O)C(=O)[C@@]2(O)C(O)=C3C(=O)c4c(O)cccc4[C@@](C)(O)[C@H]3C[C@@H]12 [Tetracycline, reference compound]",
    "RESULT": "4 µg/mL"
  },
  {
    "MOLECULE": "CNC(C)C1CCC(N)C(OC2C(N)CC(N)C(OC3OCC(C)(O)C(NC)C3O)C2O)O1 (stereo not drawn) [Gentamicin, reference compound]",
    "RESULT": "32 µg/mL"
  },
  {
    "MOLECULE": "CO[C@H]1/C=C/O[C@@]2(C)Oc3c(C)c(O)c4c(O)c(c(/C=N/N5CCN(C)CC5)c(O)c4c3C2=O)NC(=O)/C(C)=C\\C=C\\[C@H](C)[C@H](O)[C@@H](C)[C@@H](O)[C@@H](C)[C@H](OC(C)=O)[C@@H]1C [Rifampicin, reference compound]",
    "RESULT": "4 µg/mL"
  },
  {
    "MOLECULE": "CCN1CCN(C(=O)N[C@@H](C(=O)N[C@@H]2C(=O)N3[C@@H]2SC(C)(C)[C@@H]3C(=O)O)c2ccccc2)C(=O)C1=O [Piperacillin, reference compound]",
    "RESULT": "128 µg/mL"
  }
]

Provide only the value of recorded MBC for O=C(O)c1cn(C2CC2)c2cc(N3CCNCC3)c(F)cc2c1=O [Ciprofloxacin, reference compound]
1 µg/mL

Give the value of MBC reported for the following: CC[C@H]1OC(=O)[C@H](C)[C@@H](O[C@H]2C[C@@](C)(OC)[C@@H](O)[C@H](C)O2)[C@H](C)[C@@H](O[C@@H]2O[C@H](C)C[C@H](N(C)C)[C@H]2O)[C@](C)(O)C[C@@H](C)C(=O)[C@H](C)[C@@H](O)[C@]1(C)O [Erythromycin, reference compound]
32 µg/mL

====

- System: A. baumannii ATCC 19606 biofilm
- Type: cell-based, Acinetobacter baumannii
- TEST_PARAMETERS: 24 h biofilm on polystyrene 96-well plates, 24 h treatment at 37 °C, resazurin read-out, triplicate
MEASUREMENT_TYPE: MBEC

Here is how some molecules turned out for MBEC.
[
  {
    "MOLECULE": "CO[C@H]1/C=C/O[C@@]2(C)Oc3c(C)c(O)c4c(O)c(c(/C=N/N5CCN(C)CC5)c(O)c4c3C2=O)NC(=O)/C(C)=C\\C=C\\[C@H](C)[C@H](O)[C@@H](C)[C@@H](O)[C@@H](C)[C@H](OC(C)=O)[C@@H]1C [Rifampicin, reference compound]",
    "MBEC": "8 µg/mL"
  },
  {
    "MOLECULE": "CNC(C)C1CCC(N)C(OC2C(N)CC(N)C(OC3OCC(C)(O)C(NC)C3O)C2O)O1 (stereo not drawn) [Gentamicin, reference compound]",
    "MBEC": "32 µg/mL"
  },
  {
    "MOLECULE": "CC[C@H]1OC(=O)[C@H](C)[C@@H](O[C@H]2C[C@@](C)(OC)[C@@H](O)[C@H](C)O2)[C@H](C)[C@@H](O[C@@H]2O[C@H](C)C[C@H](N(C)C)[C@H]2O)[C@](C)(O)C[C@@H](C)C(=O)[C@H](C)[C@@H](O)[C@]1(C)O [Erythromycin, reference compound]",
    "MBEC": "32 µg/mL"
  },
  {
    "MOLECULE": "CN(C)[C@@H]1C(O)=C(C(N)=O)C(=O)[C@@]2(O)C(O)=C3C(=O)c4c(O)cccc4[C@@](C)(O)[C@H]3C[C@@H]12 [Tetracycline, reference compound]",
    "MBEC": "16 µg/mL"
  }
]

Dear colleague, please send me the reported MBEC for O=C(O)c1cn(C2CC2)c2cc(N3CCNCC3)c(F)cc2c1=O [Ciprofloxacin, reference compound] when you can.
2 µg/mL
